Biological target: Phospholipase D1 (Homo sapiens)
Sequence (Q13393 whole entry): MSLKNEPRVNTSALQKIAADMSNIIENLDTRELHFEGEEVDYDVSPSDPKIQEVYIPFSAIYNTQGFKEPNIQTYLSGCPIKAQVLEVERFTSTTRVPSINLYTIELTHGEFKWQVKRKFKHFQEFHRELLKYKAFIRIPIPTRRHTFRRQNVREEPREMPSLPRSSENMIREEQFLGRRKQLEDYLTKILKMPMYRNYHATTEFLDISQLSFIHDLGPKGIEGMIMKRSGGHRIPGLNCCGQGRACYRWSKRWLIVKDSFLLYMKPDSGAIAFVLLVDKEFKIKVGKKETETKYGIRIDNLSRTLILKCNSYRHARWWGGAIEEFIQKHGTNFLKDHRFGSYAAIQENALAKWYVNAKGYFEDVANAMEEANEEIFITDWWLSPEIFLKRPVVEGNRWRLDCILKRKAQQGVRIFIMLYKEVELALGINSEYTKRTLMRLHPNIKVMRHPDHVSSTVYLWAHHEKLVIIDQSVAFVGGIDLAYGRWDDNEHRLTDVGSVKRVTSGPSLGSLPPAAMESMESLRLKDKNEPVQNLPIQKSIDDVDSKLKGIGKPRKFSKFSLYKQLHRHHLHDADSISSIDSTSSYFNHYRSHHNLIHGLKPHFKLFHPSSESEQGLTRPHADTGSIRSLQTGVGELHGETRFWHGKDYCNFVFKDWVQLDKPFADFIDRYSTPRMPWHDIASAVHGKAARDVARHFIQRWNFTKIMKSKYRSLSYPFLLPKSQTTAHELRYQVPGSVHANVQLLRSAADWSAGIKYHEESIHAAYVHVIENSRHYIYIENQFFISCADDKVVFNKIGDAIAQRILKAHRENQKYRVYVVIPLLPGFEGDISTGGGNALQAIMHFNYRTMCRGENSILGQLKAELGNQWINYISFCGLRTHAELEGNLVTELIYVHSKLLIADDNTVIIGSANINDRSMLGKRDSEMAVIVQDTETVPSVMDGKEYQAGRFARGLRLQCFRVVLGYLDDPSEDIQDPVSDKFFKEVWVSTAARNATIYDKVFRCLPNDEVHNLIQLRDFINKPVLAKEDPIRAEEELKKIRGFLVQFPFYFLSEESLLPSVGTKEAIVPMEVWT
Assay: Inhibition of PLD1 in human Calu1 cells
Type: cell-based
IC50 by entry:
The reply should be a number in nM, with the unit left off.

Supply recorded IC50 for C[C@@H](CN1CCC2(CC1)C(=O)NC[C@H]2c1ccc(F)cc1)NC(=O)C#Cc1ccccc1 here.
16

Continuing:
Supply recorded IC50 for O=C(C#Cc1ccccc1)NCCN1CCC2(CC1)C(=O)NC[C@H]2c1ccc(F)cc1 here.
1200

Supply recorded IC50 for C[C@@H](CN1CCC2(CC1)C(=O)NC[C@@H]2c1ccc(F)cc1)NC(=O)C#Cc1ccccc1 here.
320

Supply recorded IC50 for C[C@@H](CN1CCC2(CC1)C(=O)NC[C@@H]2c1ccc(F)cc1)NC(=O)c1ccc(F)cc1 here.
1700

Supply recorded IC50 for C[C@@H](CN1CCC2(CC1)C(=O)NC[C@H]2c1ccc(F)cc1)NC(=O)c1cc2ccccc2[nH]1 here.
1
